Target: tau 2N4R full-length monomer, WT (UniProt P10636-8 1-441)
Sequence (P10636 other isoform, or with tags, fused parts or gaps): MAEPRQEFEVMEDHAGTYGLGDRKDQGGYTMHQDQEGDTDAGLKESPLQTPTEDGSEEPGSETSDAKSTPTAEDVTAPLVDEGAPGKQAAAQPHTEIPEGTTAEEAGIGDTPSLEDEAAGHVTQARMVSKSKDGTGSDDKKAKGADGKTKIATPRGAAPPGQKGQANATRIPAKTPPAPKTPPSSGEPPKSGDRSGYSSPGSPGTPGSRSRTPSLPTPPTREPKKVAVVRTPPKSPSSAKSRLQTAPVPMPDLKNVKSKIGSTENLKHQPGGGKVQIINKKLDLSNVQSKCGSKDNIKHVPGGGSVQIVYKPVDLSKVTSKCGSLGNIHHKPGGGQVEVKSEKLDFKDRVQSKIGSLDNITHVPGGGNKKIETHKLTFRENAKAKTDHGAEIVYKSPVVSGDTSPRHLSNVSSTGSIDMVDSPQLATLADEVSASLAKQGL
Experiment: BLI; apparent Kd, 2:1 model; kon 1.0e4 M-1 s-1, koff 1.4e-4 s-1; mean of 3; BLI (Octet, AR2G sensors, tau immobilized), nucleic acid 0.13-41 uM; buffer, salt, pH and temperature not given in the material
Conditions: protein: recombinant; single strand
Measured parameter: pKd
pKd is defined as minus the log10 of a concentration measured in mol/L.

Request: pKd lookup needed for AAAAAAAAAAAAAAAAAAAAAAAAAAAAAAAAAAAAAAAA (ssRNA) [PolyA 40-mer RNA] , thanks.
Response: 7.70
